Target: PAR2 (HT-29 cells, trypsin activation) (Homo sapiens, UniProt P55085)
Construct: host or cells: HT-29 cells
Sequence (P55085 26-397): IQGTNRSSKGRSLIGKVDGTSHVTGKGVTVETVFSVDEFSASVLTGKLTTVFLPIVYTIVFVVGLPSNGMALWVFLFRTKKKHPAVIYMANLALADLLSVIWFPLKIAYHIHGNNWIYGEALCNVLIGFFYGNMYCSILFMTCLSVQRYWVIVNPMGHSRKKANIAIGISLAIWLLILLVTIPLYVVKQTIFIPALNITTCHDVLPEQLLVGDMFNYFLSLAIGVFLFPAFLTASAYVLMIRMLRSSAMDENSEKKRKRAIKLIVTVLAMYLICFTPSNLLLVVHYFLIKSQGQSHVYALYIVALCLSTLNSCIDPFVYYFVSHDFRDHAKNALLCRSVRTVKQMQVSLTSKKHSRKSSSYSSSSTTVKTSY
Experiment: Ca FLIPR TETRA assay, ANTAGONIST mode, stimulation with 3.1 U/mL trypsin
Assay type: cell-based
Conditions: Table 6; HT-29 cells, 3.1 U/mL trypsin
readout-name: pIC50
Lab note: report pIC50 as minus log10 of the concentration in molar units, number only.

### Prompt GET /values?readout=pIC50&item= O=C(c1cn2nc(-c3ccc(F)cc3)cc(C(F)(F)F)c2n1)N1CCN(Cc2ccccn2)CC1
### Response 4.34

### Prompt Could you tell me which pIC50 is on file for CC(C)c1cc(-c2ccc(F)cc2)nn2cc(C(=O)N3CCNC(=O)C3)nc12 ?
### Response 4.39
